Value source: patent US10335401B2

assayed.target: recombinant human MGAT2 (Homo sapiens (Human), UniProt Q3SYC2)
Sequence (Q3SYC2 whole entry): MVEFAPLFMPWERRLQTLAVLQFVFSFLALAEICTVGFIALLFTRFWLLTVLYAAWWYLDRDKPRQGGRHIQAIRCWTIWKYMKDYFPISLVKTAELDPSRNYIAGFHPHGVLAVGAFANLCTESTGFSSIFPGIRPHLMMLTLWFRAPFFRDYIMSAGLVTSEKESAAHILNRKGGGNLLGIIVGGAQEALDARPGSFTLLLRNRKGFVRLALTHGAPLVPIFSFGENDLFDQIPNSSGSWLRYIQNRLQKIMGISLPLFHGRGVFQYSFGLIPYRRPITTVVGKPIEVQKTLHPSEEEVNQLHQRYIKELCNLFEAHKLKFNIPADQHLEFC
experiment.summary: Measurement of human MGAT2 inhibitory activity
cond: recombinant human MGAT2 membrane fraction (Sf-9); 2-Oleoylglycerol and Oleoyl-CoA substrates; 1 hour at room temperature; Diolein detected by RapidFire Q-TOF MS
Kindly supply the reported pIC50 values for the records listed here.
In plain terms, pIC50 is the concentration in mol/L turned into minus its base-10 logarithm.

Problem: # value lookup — system recombinant human MGAT2 (Homo sapiens (Human), UniProt Q3SYC2), readout pIC50, item COc1ccc(C2=C(CNS(=O)(=O)CC#N)C(=O)N[C@@](c3ccc(OCCCC(F)(F)F)cc3)(C(F)(F)F)C2)nc1
Result: 7.46

Problem: # value lookup — system recombinant human MGAT2 (Homo sapiens (Human), UniProt Q3SYC2), readout pIC50, item CC(=O)NCC1=C(c2ccc(C)cn2)C[C@](c2ccc(OCCCC(F)(F)F)cc2)(C(F)(F)F)NC1=O
Result: 7.49

Problem: # value lookup — system recombinant human MGAT2 (Homo sapiens (Human), UniProt Q3SYC2), readout pIC50, item CC(=O)NCC1=C(c2ncc(C3CC3)s2)C[C@](c2ccc(OCCCC(F)(F)F)cc2)(C(F)(F)F)NC1=O
Result: 6.36

Problem: # value lookup — system recombinant human MGAT2 (Homo sapiens (Human), UniProt Q3SYC2), readout pIC50, item CC(C)c1ccc(C2=C(CNC(=O)C3COC3)C(=O)N[C@@](c3ccc(OCCCC(F)(F)F)cc3)(C(F)(F)F)C2)nc1
Result: 7.96

Problem: # value lookup — system recombinant human MGAT2 (Homo sapiens (Human), UniProt Q3SYC2), readout pIC50, item Cc1ccc(C2=C(CNC(=O)c3ccno3)C(=O)N[C@@](c3ccc(OCCCC(F)(F)F)cc3)(C(F)(F)F)C2)nc1
Result: 8.66

Problem: # value lookup — system recombinant human MGAT2 (Homo sapiens (Human), UniProt Q3SYC2), readout pIC50, item O=C(CC(F)(F)F)NCC1=C(c2ccc(C(F)F)cn2)C[C@](c2ccc(OCCCC(F)(F)F)cc2)(C(F)(F)F)NC1=O
Result: 8.42

Problem: # value lookup — system recombinant human MGAT2 (Homo sapiens (Human), UniProt Q3SYC2), readout pIC50, item CS(=O)(=O)CC(=O)NCC1=C(c2ccc(C(F)F)cn2)C[C@](c2ccc(OCCCC(F)(F)F)cc2)(C(F)(F)F)NC1=O
Result: 8.96

Problem: # value lookup — system recombinant human MGAT2 (Homo sapiens (Human), UniProt Q3SYC2), readout pIC50, item CS(=O)(=O)CC(=O)NCC1=C(c2ccc(C(F)F)cn2)CC(c2ccc(Br)cc2F)(C(F)(F)F)NC1=O (centres unmarked)
Result: 7.48
